- Tested on: NCI-H1395
- PROCEDURE TEXT: relative viability (nuclei count vs DMSO), 5 days (fraction); higher = more cells survive
- MEASUREMENT CONDITIONS: first compound 0.8 µM
Recorded measurements of relative viability, one per entry

MOLECULE	relative viability
O=c1cc(-c2cccc3c2Sc2ccccc2S3)oc(N2CCOCC2)c1 + CC1(C)CCC(c2ccc(Cl)cc2)=C(CN2CCN(c3ccc(C(=O)NS(=O)(=O)c4ccc(N[C@H](CCN5CCOCC5)CSc5ccccc5)c(S(=O)(=O)C(F)(F)F)c4)cc3)CC2)C1 [Navitoclax] (partner 0.5 µM)	1.12
O=c1cc(-c2cccc3c2Sc2ccccc2S3)oc(N2CCOCC2)c1 + Nc1ncn([C@H]2C[C@H](O)[C@@H](CO)O2)c(=O)n1 [Decitabine] (partner 2 µM)	0.736
COc1nc(C)cnc1NS(=O)(=O)c1cccnc1-c1ccc(-c2nnco2)cc1 [Zibotentan] + CS(=O)(=O)CCNCc1ccc(-c2ccc3ncnc(Nc4ccc(OCc5cccc(F)c5)c(Cl)c4)c3c2)o1 [Lapatinib] (partner 2 µM)	0.952
O=c1cc(-c2cccc3c2Sc2ccccc2S3)oc(N2CCOCC2)c1 + O=C(CCCCCCC(=O)Nc1ccccc1)NO [Vorinostat] (partner 1 µM)	0.777

---

- System: NCI-H1793
- PROCEDURE TEXT: relative viability (nuclei count vs DMSO), 5 days (fraction); higher = more cells survive
- MEASUREMENT CONDITIONS: first compound 2.53 µM

MOLECULE	TARGET OR TEST SYSTEM	relative viability
COc1nc(C)cnc1NS(=O)(=O)c1cccnc1-c1ccc(-c2nnco2)cc1 [Zibotentan] + NC(=O)Nc1cc(-c2cccc(F)c2)sc1C(=O)N[C@H]1CCCNC1 [AZD7762] (partner 0.2 µM)	NCI-H1793	0.495
O=c1cc(-c2cccc3c2Sc2ccccc2S3)oc(N2CCOCC2)c1 + Cc1nc(NC(=O)N2CCC[C@H]2C(N)=O)sc1-c1ccnc(C(C)(C)C(F)(F)F)c1 [Alpelisib] (partner 2 µM)	NCI-H1793	0.55
COc1nc(C)cnc1NS(=O)(=O)c1cccnc1-c1ccc(-c2nnco2)cc1 [Zibotentan] + Cc1nc(Nc2ncc(C(=O)Nc3c(C)cccc3Cl)s2)cc(N2CCN(CCO)CC2)n1 [Dasatinib] (partner 0.075 µM)	NCI-H1793	0.379
COc1nc(C)cnc1NS(=O)(=O)c1cccnc1-c1ccc(-c2nnco2)cc1 [Zibotentan] + Nc1nc2[nH]cc(CCc3ccc(C(=O)N[C@@H](CCC(=O)O)C(=O)O)cc3)c2c(=O)[nH]1 [Pemetrexed] (partner 0.2 µM)	NCI-H1793	1.08

---

- System: HOP-62
- PROCEDURE TEXT: relative viability (nuclei count vs DMSO), 5 days (fraction); higher = more cells survive
- MEASUREMENT CONDITIONS: first compound 0.8 µM
OBSERVED PROPERTY: relative viability

MOLECULE	OBSERVED PROPERTY	VALUE
COc1nc(C)cnc1NS(=O)(=O)c1cccnc1-c1ccc(-c2nnco2)cc1 [Zibotentan] + CCNC(=O)c1noc(-c2cc(C(C)C)c(O)cc2O)c1-c1ccc(CN2CCOCC2)cc1 [Luminespib] (partner 0.01 µM)	relative viability	0.906
O=c1cc(-c2cccc3c2Sc2ccccc2S3)oc(N2CCOCC2)c1 + CC(=O)Nc1cccc(-n2c(=O)n(C3CC3)c(=O)c3c(Nc4ccc(I)cc4F)n(C)c(=O)c(C)c32)c1 [Trametinib] (partner 0.02 µM)	relative viability	0.348
